Catalogue of TCF/Wnt firefly luciferase reporter signal readings, one per entry.
- Tested on: DLD1
- Assay info: TCF/Wnt firefly luciferase reporter signal relative to plate median (fraction of plate median); higher = higher Wnt reporter signal
- Experimental conditions: 5 µM; treatment time 24 h; reporter: 7TFP
Respond using a number only.

1. CCCC(=O)Nc1ccc(OCC(O)CNC(C)C)c(C(C)=O)c1 (stereo unspecified) | 0.957
2. COc1ccc(-c2cc(=O)c3c(OC)c(OC)c(OC)c(OC)c3o2)cc1OC | 0.951
3. COc1ccc2c(c1OC)C(=O)O[C@@H]2[C@H]1c2c(cc3c(c2OC)OCO3)CCN1C | 0.973
4. O=C(CCCN1CCC(O)(c2ccc(Cl)cc2)CC1)c1ccc(F)cc1 | 1.08
5. C[C@]12CCC[C@H](O1)c1c(cc3c(c1O)C(=O)c1c(O)cc(O)cc1C3=O)O2 [Averufin (Isoform A, Compound ID 7507)] | 0.896

Lookup: // returns reported TCF/Wnt firefly luciferase reporter signal for input CC(C)C[C@@H](NC(=O)[C@H](C)NC(=O)CNC(=O)[C@@H](NC=O)C(C)C)C(=O)N[C@@H](C)C(=O)N[C@@H](C(=O)N[C@H](C(=O)N[C@H](C(=O)N[C@@H](Cc1c[nH]c2ccccc12)C(=O)N[C@H](CC(C)C)C(=O)N[C@@H](Cc1c[nH]c2ccccc12)C(=O)N[C@H](CC(C)C)C(=O)N[C@@H](Cc1c[nH]c2ccccc12)C(=O)N[C@H](CC(C)C)C(=O)N[C@@H](Cc1c[nH]c2ccccc12)C(=O)NCCO)C(C)C)C(C)C)C(C)C
Found: 0.885

---

- Test system: SW480
- Assay info: TCF/Wnt firefly luciferase reporter signal relative to plate median (fraction of plate median); higher = higher Wnt reporter signal
- Experimental conditions: 5 µM; treatment time 24 h; reporter: 7TFP
Catalogue of TCF/Wnt firefly luciferase reporter signal readings, one per entry.
Respond using a number only.

Lookup: // returns reported TCF/Wnt firefly luciferase reporter signal for input CCCOc1ccc(C(=O)OCCN(CC)CC)cc1N
Found: 1.09

Lookup: // returns reported TCF/Wnt firefly luciferase reporter signal for input CN1CCc2cccc3c2[C@H]1Cc1ccc(O)c(O)c1-3
Found: 0.978

Lookup: // returns reported TCF/Wnt firefly luciferase reporter signal for input CC(C)C[C@@H]1NC(=O)CNC1=O
Found: 0.935

Lookup: // returns reported TCF/Wnt firefly luciferase reporter signal for input COc1ccc2cc([C@H](C)CO)ccc2c1
Found: 1.04

Lookup: // returns reported TCF/Wnt firefly luciferase reporter signal for input CCCc1cc(C(N)=S)ccn1
Found: 1.04

Lookup: // returns reported TCF/Wnt firefly luciferase reporter signal for input O=CNc1ccccc1C(=O)O
Found: 0.689

---

- Test system: SW480
- Assay info: TCF/Wnt firefly luciferase reporter signal relative to plate median (fraction of plate median); higher = higher Wnt reporter signal
- Experimental conditions: 5 µM; treatment time 24 h; reporter: 7TFP
Label 1 for high-side TCF/Wnt firefly luciferase reporter signal (at or above 1) and -1 for low-side TCF/Wnt firefly luciferase reporter signal (below it).

Examples with answers:
1. NC(N)=O | -1
2. COc1ccc2c(=O)c(-c3cc4c(cc3OC)OCO4)coc2c1 | 1
3. Oc1cc(O)c2c(c1)O[C@H](c1ccc(O)c(O)c1)[C@@H](O)C2 | 1
4. C[C@@H]1CC[C@@]2(OC1)O[C@H]1C[C@H]3[C@@H]4CC[C@H]5C[C@@H](O)CC[C@]5(C)[C@H]4CC[C@]3(C)[C@H]1[C@@H]2C | -1

Lookup: Confirm if TCF/Wnt firefly luciferase reporter signal reported for the molecule CCCOc1ccc2[nH]c(NC(=O)OC)nc2c1 is 1 or above.
Found: -1

Lookup: Confirm if TCF/Wnt firefly luciferase reporter signal reported for the molecule COC(=O)CC[C@@H](C)[C@H]1CC[C@H]2[C@@H]3CC[C@@H]4C[C@H](O)CC[C@]4(C)[C@H]3C[C@H](O)[C@]12C is 1 or above.
Found: -1

Lookup: Confirm if TCF/Wnt firefly luciferase reporter signal reported for the molecule COc1cc2oc3cc(OC)c(OC)c(CC=C(C)C)c3c(=O)c2c(O)c1CC=C(C)C is 1 or above.
Found: -1
